conditions: in n-propanol, 303.15 K
Experimental Readout: solubility (mole fraction)
Lab note: jot the number down without any unit.

Would you kindly share the measured solubility (mole fraction) for O=C1NC23NC(=O)NC2(N1)C(=O)NC3=O (stereo unspecified) ?
0.000103

* * *

conditions: in toluene, 298.15 K
Experimental Readout: solubility (mole fraction)

Item under review: O=C1NC23NC(=O)NC2(N1)C(=O)NC3=O (stereo unspecified) . Reported solubility (mole fraction)?
1.05e-05

* * *

settings: in THF, 318.15 K
Experimental Readout: solubility (mole fraction)
Please respond with just the number, no unit label.

Consider the molecule O=C1NC23NC(=O)NC2(N1)C(=O)NC3=O (stereo unspecified) and give its measured solubility (mole fraction).
0.00325

* * *

details: in n-propanol, 313.15 K
Experimental Readout: solubility (mole fraction)
Answer using only a numeral; do not append any unit.

// returns reported solubility (mole fraction) for input O=C1NC23NC(=O)NC2(N1)C(=O)NC3=O (stereo unspecified)
0.000151

* * *

conditions: in isopropanol, 318.15 K
Experimental Readout: solubility (mole fraction)
// no unit, no text: just the number

solubility (mole fraction) lookup needed for O=C1NC23NC(=O)NC2(N1)C(=O)NC3=O (stereo unspecified) , thanks.
0.000614

* * *

details: in acetone, 313.15 K
Experimental Readout: solubility (mole fraction)
Reply briefly: the number, and no unit.

Return reported solubility (mole fraction); argument: O=C1NC23NC(=O)NC2(N1)C(=O)NC3=O (stereo unspecified)
0.000202

* * *

details: in ethyl acetate, 273.15 K
Experimental Readout: solubility (mole fraction)
Kindly provide the number alone.

Item O=C1NC23NC(=O)NC2(N1)C(=O)NC3=O (stereo unspecified) has what recorded solubility (mole fraction)?
2.59e-05

* * *

details: in ethylene glycol, 283.15 K
Experimental Readout: solubility (mole fraction)
Write no unit; give the number alone.

What value of solubility (mole fraction) has been recorded for this entry: O=C1NC23NC(=O)NC2(N1)C(=O)NC3=O (stereo unspecified)
0.00036

* * *

conditions: in ethanol, 318.15 K
Experimental Readout: solubility (mole fraction)
No unit in the answer, only the number.

GET /values?readout=solubility (mole fraction)&item= O=C1NC23NC(=O)NC2(N1)C(=O)NC3=O (stereo unspecified)
0.000419

* * *

conditions: in toluene, 288.15 K
Experimental Readout: solubility (mole fraction)
Hey, just send me the number, nothing else.

Reported solubility (mole fraction), compound O=C1NC23NC(=O)NC2(N1)C(=O)NC3=O (stereo unspecified) : ____
6.1e-06

* * *

details: in acetonitrile, 283.15 K
Experimental Readout: solubility (mole fraction)
Answer field: number only, no words.

// lookup solubility (mole fraction) for O=C1NC23NC(=O)NC2(N1)C(=O)NC3=O (stereo unspecified)
1.43e-05

* * *

settings: in water, 278.15 K
Experimental Readout: solubility (mole fraction)
In your answer, state the number alone without any accompanying words.

I'd like to know its solubility (mole fraction). The compound in question is O=C1NC23NC(=O)NC2(N1)C(=O)NC3=O (stereo unspecified)
7.18e-05

* * *

details: in ethylene glycol, 313.15 K
Experimental Readout: solubility (mole fraction)
// print number alone

Given the compound O=C1NC23NC(=O)NC2(N1)C(=O)NC3=O (stereo unspecified) , what is its reported solubility (mole fraction)?
0.00073

* * *

settings: in ethylene glycol, 278.15 K
Experimental Readout: solubility (mole fraction)
Reply with just the number.

Given the molecule O=C1NC23NC(=O)NC2(N1)C(=O)NC3=O (stereo unspecified) , what is its reported solubility (mole fraction)?
0.000326
